SYSTEM NAME: JAK2 JH1 JH2 (human) (UniProt O60674)
Sequence (O60674 whole entry, looked up): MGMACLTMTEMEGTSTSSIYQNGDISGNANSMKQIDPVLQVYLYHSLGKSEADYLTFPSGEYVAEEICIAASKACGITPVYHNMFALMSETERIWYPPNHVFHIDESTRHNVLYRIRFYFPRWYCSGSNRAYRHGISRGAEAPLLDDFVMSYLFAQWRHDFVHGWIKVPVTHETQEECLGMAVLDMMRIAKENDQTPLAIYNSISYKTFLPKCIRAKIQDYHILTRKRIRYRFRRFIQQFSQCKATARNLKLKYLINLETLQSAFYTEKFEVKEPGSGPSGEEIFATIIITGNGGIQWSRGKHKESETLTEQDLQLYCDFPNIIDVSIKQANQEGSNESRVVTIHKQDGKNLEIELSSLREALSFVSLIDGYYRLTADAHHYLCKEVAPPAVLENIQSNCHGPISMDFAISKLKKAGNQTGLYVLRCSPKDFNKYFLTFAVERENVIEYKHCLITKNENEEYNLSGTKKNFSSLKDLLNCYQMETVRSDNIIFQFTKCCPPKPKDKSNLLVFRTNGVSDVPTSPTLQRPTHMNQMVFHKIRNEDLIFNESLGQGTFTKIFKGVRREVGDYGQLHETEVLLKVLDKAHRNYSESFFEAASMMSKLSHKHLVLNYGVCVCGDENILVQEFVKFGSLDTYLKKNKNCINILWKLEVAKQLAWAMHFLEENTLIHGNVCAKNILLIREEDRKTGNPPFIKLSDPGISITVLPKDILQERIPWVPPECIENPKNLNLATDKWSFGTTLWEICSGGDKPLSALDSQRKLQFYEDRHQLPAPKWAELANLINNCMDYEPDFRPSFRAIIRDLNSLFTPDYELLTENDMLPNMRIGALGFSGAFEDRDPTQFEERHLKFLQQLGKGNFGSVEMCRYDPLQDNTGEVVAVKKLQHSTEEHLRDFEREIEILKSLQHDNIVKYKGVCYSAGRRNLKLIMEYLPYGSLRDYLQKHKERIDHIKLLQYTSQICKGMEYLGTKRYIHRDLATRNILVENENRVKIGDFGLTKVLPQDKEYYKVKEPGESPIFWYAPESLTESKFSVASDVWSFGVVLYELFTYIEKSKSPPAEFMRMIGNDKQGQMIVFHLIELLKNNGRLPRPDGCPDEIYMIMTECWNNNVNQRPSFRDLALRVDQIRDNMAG
ASSAY METHOD TEXT: Caliper, Mobility shift assay off-chip
CONDITION CONTEXT: compound 0.2 µM
RECORDED METRIC: inhibition (%)

SMILES DATA | inhibition, %
Cc1ccc(Nc2nccc(N(C)c3ccc4c(C)n(C)nc4c3)n2)cc1S(N)(=O)=O | 11.4

(1) CCN(CC)CCNC(=O)c1c(C)[nH]c(/C=C2\C(=O)Nc3ccc(F)cc32)c1C
(2) CNC(=O)c1cc(Oc2ccc(NC(=O)Nc3ccc(Cl)c(C(F)(F)F)c3)cc2)ccn1
(3) COc1cc2c(Oc3ccc4[nH]c(C)cc4c3F)ncnc2cc1OCCCN1CCCC1
Number of compounds to sort: 3. Sort criterion: inhibition, ascending. Give the labels in the order requested.
3, 2, 1
